Values compiled from patent US20240270826A1.

- ASSAYED TARGET: Human SARS-CoV-2_Wuhan S (SmT1) (SARS-CoV-2 (Wuhan), UniProt P0DTC2 14-1208)
- PROTOCOL DETAILS: SPR, VHH over immobilised S
MEASUREMENT NAME: koff (s⁻¹)
Numbers only; they are read as s⁻¹.

Please review the entries below; each comes with its answer.
- NRCoV2-MRed22 VHH (VHH) VHH: EVQLVESGGGLVQPGGSLRLSCAASGSVFASNAMGWYRQAPGKQRELVATISSRGSTNYADSVKGRFTISRDNAKNTVYLQMNSLGPEDTAVYYCNAREFTGFDYWGQGTQVTVSS: 0.000176
- NRCoV2-MRed25 VHH (VHH) VHH: EVQLVESGGGLVQAGGSLRLSCAASGHTFSRYGMGWFRQAPGKEREFVAAISWRGDSTYYRDSVNGRFTISRDNAKNTVYLGMNSLKPEDTAVYYCAAEMWGTATIVASRYTYWGQGTQVTVSS: 0.000115
- NRCoV2-03 VHH (VHH) VHH: EVQLVSSGGGLVQAGGSLRLSCTASGITFSYYAMGWYRQAPGQPRELVASMSNMDSTIYADSVKGRFTISRDNAKTTIYLQMNNLKPEDTAVYFCNIYGPTYSTRRNEYWGQGTQVTVSS: 0.000181

*Q* # lookup: koff of NRCoV2-MRed11 VHH (VHH) VHH: EVQLVESGGGLVQAGGSLRLSCAASGFTFSSYAMSWHRQAPGKGLEWVSAINSGGGSTSYADSVKGRFAISRDNAKNTLYLQMNSLKPEDTAVYYCATTISDGSSWSTKSYRGQGTQVTVSS
*A* 0.000283
